Cited source for all entries: ChEMBL document CHEMBL4190389

Target: 5-hydroxytryptamine receptor 7 (Homo sapiens)
Assay: Displacement of [3H]-LSD from recombinant human 5-HT7 receptor after 60 mins by liquid scintillation counting method
readout_type: Ki

Would you mind telling me what Ki value was observed for `COc1ccccc1N1CCN(CCCOc2c(C)cccc2C)CC1.Cl` ?
26 nM

---

Target: UniProtKB P28223
Assay: Antagonist activity at human 5-HT2A receptor expressed in CHO-K1 cells co-expressing Galpha16 assessed as decrease in serotonin calcium mobilization preincubated for 30 mins followed by serotonin challenge measured for 30 secs by aequorin-derived luminescence assay
The reader will find reported IC50 values listed item by item below.
State the answer as a number, implicitly in µM.

Cc1cccc(OCCOCCN2CCN(CCc3ccccc3)CC2)c1C.Cl.Cl ... 6.97

Can you look up the measured IC50 of `Cc1cc(OCCCN2CCN(c3ccccc3)CC2)ccc1Cl.Cl.Cl` for me?
85.8

Cool, now `COc1ccccc1N1CCN(CCOCCOc2cc(C)cc(C)c2C)CC1.Cl.Cl`
4.01

Entry to check: `COc1ccccc1N1CCN(CCOCCOc2c(C)cc(C)cc2C)CC1.Cl.Cl`
18.2

---

Target: 5-hydroxytryptamine receptor 7 (Homo sapiens, UniProt P34969)
Sequence (P34969 whole entry): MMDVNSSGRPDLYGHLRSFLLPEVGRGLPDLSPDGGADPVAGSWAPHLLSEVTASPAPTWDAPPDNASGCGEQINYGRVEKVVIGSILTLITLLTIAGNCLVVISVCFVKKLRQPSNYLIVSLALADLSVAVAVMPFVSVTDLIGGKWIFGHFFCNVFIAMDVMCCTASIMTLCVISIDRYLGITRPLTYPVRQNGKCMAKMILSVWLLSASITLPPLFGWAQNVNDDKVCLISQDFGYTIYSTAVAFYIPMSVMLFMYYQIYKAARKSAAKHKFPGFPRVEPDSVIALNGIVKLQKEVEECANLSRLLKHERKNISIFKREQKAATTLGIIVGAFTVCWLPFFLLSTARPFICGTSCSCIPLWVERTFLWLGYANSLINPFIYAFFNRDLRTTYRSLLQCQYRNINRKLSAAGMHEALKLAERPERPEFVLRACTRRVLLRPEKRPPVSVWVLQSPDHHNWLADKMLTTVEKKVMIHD
Assay: Agonist activity at human 5-HT7 receptor expressed in CHO-K1 cells assessed as increase in serotonin-induced cAMP level after 1 hr by TR-FRET assay relative to serotonin
Format: functional, cell-based
readout_type: Emax (%)
Answer with a number only, understood to be in %.

Cc1cc(OCCCN2CCN(c3ccccc3)CC2)ccc1Cl.Cl.Cl ... 11
COc1ccccc1N1CCN(CCOCCOc2cc(C)cc(C)c2C)CC1.Cl.Cl ... 9
COc1ccccc1N1CCN(CCOCCOc2c(C)cc(C)cc2C)CC1.Cl.Cl ... 11

Tell me the measured Emax of `COc1ccccc1N1CCN(CCCOc2ccc(C)cc2C)CC1.Cl` , please.
0

How about this compound: `CC1CCN(CC[C@H]2CCCN2S(=O)(=O)c2cccc(O)c2)CC1`
-1

---

Measured Ki accompanies every entry in the list below.
Biological target: 5-hydroxytryptamine receptor 2A (Homo sapiens, UniProt P28223)
Sequence (P28223 whole entry): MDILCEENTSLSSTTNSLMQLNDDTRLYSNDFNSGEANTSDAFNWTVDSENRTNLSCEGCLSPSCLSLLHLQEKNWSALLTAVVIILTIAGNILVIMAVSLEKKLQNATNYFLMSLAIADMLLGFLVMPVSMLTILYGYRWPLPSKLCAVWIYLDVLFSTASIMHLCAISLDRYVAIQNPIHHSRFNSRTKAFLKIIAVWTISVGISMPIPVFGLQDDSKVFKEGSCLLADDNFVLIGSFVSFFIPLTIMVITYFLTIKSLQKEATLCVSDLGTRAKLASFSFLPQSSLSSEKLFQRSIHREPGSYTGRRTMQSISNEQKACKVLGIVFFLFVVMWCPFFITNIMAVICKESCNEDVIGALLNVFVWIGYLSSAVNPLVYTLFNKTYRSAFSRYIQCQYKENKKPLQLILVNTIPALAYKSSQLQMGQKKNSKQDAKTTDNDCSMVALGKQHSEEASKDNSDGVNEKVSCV
Assay: biochemical
Format: cell-based, HEK293
Description: Displacement of [3H]ketanserin from recombinant human 5-HT2A receptor expressed in HEK293 cell membranes after 60 mins by liquid scintillation counting method
Report only the number, with the unit nM understood.

Would you please look over these solved cases?
Cc1cc(OCCCN2CCN(c3ccccc3)CC2)ccc1Cl.Cl.Cl ... 76
Cc1cc(C)c(OCCOCCN2CCN(CCc3ccccc3)CC2)c(C)c1.Cl.Cl ... 2810
Cc1cccc(OCCOCCN2CCN(CCc3ccccc3)CC2)c1C.Cl.Cl ... 220

Please examine the following record next.
Please state recorded Ki (tested on 5-hydroxytryptamine receptor 2A (Homo sapiens, UniProt P28223)) of `COc1ccccc1N1CCN(CCOCCOc2cc(C)cc(C)c2C)CC1.Cl.Cl`
159

---

Molecular target: 5-hydroxytryptamine receptor 2A (Homo sapiens, UniProt P28223)
Test: Displacement of [3H]-ketanserin from recombinant human 5-HT2A receptor after 60 mins by liquid scintillation counting method
# Ki annotations
Reply with just the number (in nM).

COc1ccccc1N1CCN(CCCOc2c(C)cccc2C)CC1.Cl ... 192

# Ki lookup, item `COc1ccccc1N1CCN(CCCOc2c(C)cc(C)cc2C)CC1.Cl`
2830

---

Target: UniProtKB P14416
Sequence (P14416 whole entry): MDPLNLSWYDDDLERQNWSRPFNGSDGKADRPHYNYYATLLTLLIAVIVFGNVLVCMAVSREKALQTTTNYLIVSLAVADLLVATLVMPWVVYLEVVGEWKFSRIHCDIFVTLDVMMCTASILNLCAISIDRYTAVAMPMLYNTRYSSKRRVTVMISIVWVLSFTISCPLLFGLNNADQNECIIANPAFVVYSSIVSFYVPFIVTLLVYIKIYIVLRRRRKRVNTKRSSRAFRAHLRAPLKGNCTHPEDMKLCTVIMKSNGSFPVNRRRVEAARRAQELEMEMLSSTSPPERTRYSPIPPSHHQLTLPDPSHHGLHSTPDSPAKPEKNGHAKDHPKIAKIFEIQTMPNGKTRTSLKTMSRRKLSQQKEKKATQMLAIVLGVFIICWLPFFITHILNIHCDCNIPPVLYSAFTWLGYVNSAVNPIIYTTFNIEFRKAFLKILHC
Assay: Displacement of [3H]methylspiperonee from recombinant human D2 receptor expressed in HEK293 cell membranes at 10^-5 M after 60 mins by liquid scintillation counting method
Activity calls are given as the source filed them. The calls are words filed in the database; no cut-off is given here.
readout_type: inhibition

Cc1cc(C)c(OCCOCCN2CCN(CCO)CC2)c(C)c1.Cl.Cl ... inactive
Cc1cc(C)c(C)c(OCCOCCN2CCN(CCO)CC2)c1.Cl.Cl ... inactive
Cc1cc(C)c(OCCOCCN2CCN(CCc3ccccc3)CC2)c(C)c1.Cl.Cl ... inactive
Cc1cc(C)c(OCCOCCN2CCN(Cc3ccccc3)CC2)c(C)c1.Cl.Cl ... inactive
